Please go through the items and note down their pEC50.
test system: influenza viruses (A/PR8/34/H1N1); test: microbe, parasite or virus in culture; conditions: H1N1|PR8, MDCK, read-out: EC50 Antiviral effect (50% effective concentration), viral infectivity-inhibiting effect
Reminder that pEC50 is minus the log10 of a molar concentration.

Task item: # query: pEC50 of entry CC(=O)N[C@H]1[C@H]([C@H](O)[C@H](O)CO)OC(C(=O)O)=C[C@@H]1N=C(N)N [zanamivir]
Reply: 5.20

Task item: Also need CCOC(=O)C1=C[C@@H](OC(CC)CC)[C@H](NC(C)=O)[C@@H](N)C1 [oseltamivir phosphate] , thanks.
Reply: 4.25
